# system tested: Orexin/Hypocretin receptor type 1 (Homo sapiens) (UniProt O43613)
# Sequence (O43613 whole entry, looked up): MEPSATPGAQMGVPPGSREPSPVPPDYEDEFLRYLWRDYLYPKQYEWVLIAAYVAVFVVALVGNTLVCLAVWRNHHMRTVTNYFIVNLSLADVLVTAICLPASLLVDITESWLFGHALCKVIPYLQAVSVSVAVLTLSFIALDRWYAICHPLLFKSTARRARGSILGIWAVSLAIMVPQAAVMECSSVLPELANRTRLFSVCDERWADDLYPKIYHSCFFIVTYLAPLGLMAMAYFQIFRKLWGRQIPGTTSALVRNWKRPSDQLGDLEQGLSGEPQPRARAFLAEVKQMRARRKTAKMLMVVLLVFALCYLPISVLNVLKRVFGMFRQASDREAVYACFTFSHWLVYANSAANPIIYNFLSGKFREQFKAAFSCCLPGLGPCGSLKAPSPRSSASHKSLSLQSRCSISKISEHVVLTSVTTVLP
# procedure summary: antagonists of human orexin 1 receptor (OX1R) (AID 485270);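 further: 0% = agonist challenge alone and 100% = reference antagonist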
# condition context: OX1R-expressing cells, FRET antagonist read-out; at 6.6 µM; hits give high values
In all, about 330,000 compounds went through this assay and about 5,800 (1.8%) were called active. For the sample, actives were picked, then their nearest neighbours and some compounds at random.
Recorded inhibition by entry
# value in %; strip the unit string

Consider the worked cases shown below.
> print(dat)
                                   compound                             system.tested  recorded.measurement
1  COc1ccc(C(CNC(=O)c2cccc(S(=O)(=O)Nc3ccccc3Cl)c2)N2CCOCC2)cc1 (stereo not given)  Orexin/Hypocretin receptor type 1 (Homo sapiens) (UniProt O43613)                  34.6
2  CN(c1ccccc1)S(=O)(=O)c1cc(C(=O)N2CCN(c3ncccn3)CC2)ccc1Cl  Orexin/Hypocretin receptor type 1 (Homo sapiens) (UniProt O43613)                  4.83
3  COc1ccc(-n2c(C)cc(C(=O)COC(=O)c3cc(OC)c(OC)cc3NC(=O)c3cccs3)c2C)cc1  Orexin/Hypocretin receptor type 1 (Homo sapiens) (UniProt O43613)                  1.91
4  COc1ccc(-n2c(C)cc(C(=O)CSc3nnc(-c4cccs4)o3)c2C)cc1  Orexin/Hypocretin receptor type 1 (Homo sapiens) (UniProt O43613)                  39.4
5  O=C(c1cnccn1)N1CCN(S(=O)(=O)c2cccc(Cl)c2)CC1  Orexin/Hypocretin receptor type 1 (Homo sapiens) (UniProt O43613)                  4.72
6  CCOc1ccc(/C=C/C(=O)OCC(=O)c2ccccc2OC)cc1OC  Orexin/Hypocretin receptor type 1 (Homo sapiens) (UniProt O43613)                  62.2
7  CCN1C(=O)/C(=C2\SC(N3CCCCC3)=NC2=O)c2ccccc21  Orexin/Hypocretin receptor type 1 (Homo sapiens) (UniProt O43613)                  42.2
8  CC1CCCCC1NC(=O)Cn1c(=O)cnc2ccccc21 (stereo not given)  Orexin/Hypocretin receptor type 1 (Homo sapiens) (UniProt O43613)                   7.4

Output measured inhibition for this item: `CCn1nnnc1SCC(=O)c1ccc(C)cc1C` 12.5

Output measured inhibition for this item: `COc1cccc(NC(=O)CSc2nnc(C3CCCCC3)n2N)c1` 6.23

###

# system tested: Orexin/Hypocretin receptor type 1 (Homo sapiens) (UniProt O43613)
# procedure summary: antagonists of human orexin 1 receptor (OX1R) (AID 485270);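 further: 0% = agonist challenge alone and 100% = reference antagonist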
# condition context: OX1R-expressing cells, FRET antagonist read-out; at 6.6 µM; hits give high values
The whole screen tested about 330,000 compounds, of which about 5,800 (1.8%) were called active. The entries come from a sample that favours actives as a whole.
value kind: inhibition (%)
# value in %; strip the unit string

> print(dat)
                                   compound  measure.unit  recorded.measurement
1  Cc1ccccc1S(=O)(=O)N1[C@@H](c2cccc(Cl)c2)C(C(=O)O)=CC[C@H]1c1ccc(Cl)cc1             %                  90.2

Output measured inhibition for this item: `CC(C)(C)c1ccc(C(=O)NCC(=O)OCN2C(=O)c3ccccc3C2=O)cc1` -0.82

Output measured inhibition for this item: `CN(CC(=O)O)C(=O)c1ccccc1` 11.7

Output measured inhibition for this item: Cc1ccc(S(=O)(=O)N2CCN(C(=O)CN3C(=O)NC(C)(c4ccc(Cl)cc4)C3=O)CC2)c(C)c1 (centres undefined) 4.7

Output measured inhibition for this item: O=C(NC(Cc1c[nH]c2ccccc12)C(=O)N/N=C/c1ccc(Br)cc1)c1cccs1 (centres undefined) 68.7

Output measured inhibition for this item: COc1ccccc1OCCNCC(O)COc1cccc2[nH]c3ccccc3c12 (centres undefined) 59.7

Output measured inhibition for this item: `Cc1ccc(S(=O)(=O)N2CCN(CC(=O)N/N=C/c3cc([N+](=O)[O-])ccc3Cl)CC2)cc1` 19.3

Output measured inhibition for this item: `Cc1ccc(S(=O)(=O)Nc2ccc3c(c2)C(=O)N([C@H](C)CO)C[C@@H](C)[C@@H](CN(C)C(=O)Nc2cccc4ccccc24)O3)cc1` 2.14

Output measured inhibition for this item: CC(O)CNCCOc1cccc(Oc2ccccc2)c1 (centres undefined) 3.22

Output measured inhibition for this item: `CC(=O)Nc1ccc(/C=N/NC(=O)c2cccs2)cc1` 18.1

Output measured inhibition for this item: Cc1ccc(S(=O)(=O)N2C3C=CC(C3)C2C(=O)O)cc1 (centres undefined) 7.96

Output measured inhibition for this item: `CS(=O)(=O)N(CC(=O)N1CCN(c2cccc(Cl)c2)CC1)c1ccccc1` -2.69

Output measured inhibition for this item: `Cc1ccc(S(=O)(=O)N2[C@@H](c3ccccc3F)C(C(=O)O)=CC[C@H]2c2ccc(Cl)cc2)cc1` 64.8

Output measured inhibition for this item: CC(C)(C)NCC(O)COc1cccc2[nH]c(=O)[nH]c12 (centres undefined) 8.82

Output measured inhibition for this item: `Cc1ccc(S(=O)(=O)N2[C@@H](c3cccc(Cl)c3)C(C(=O)O)=CC[C@H]2c2ccc(Cl)c(Cl)c2)cc1` 81.4

Output measured inhibition for this item: `COC(=O)[C@]1(C)N[C@H](CN(C)C(=O)c2ccc(C(C)(C)C)cc2)[C@@H]2C(=O)N(C)C(=O)[C@@H]21` 6.6

Output measured inhibition for this item: `O=C(NNS(=O)(=O)c1c(F)cc(F)c(Cl)c1F)C12CC3CC(CC(C3)C1)C2` 6.19

Output measured inhibition for this item: `Cc1ccc([C@@H]2CC=C(C(=O)O)[C@H](c3cccc(Cl)c3)N2S(=O)(=O)c2ccc(C)cc2)cc1` 82.9

Output measured inhibition for this item: `O=C(Nc1cccc(S(=O)(=O)NC2=NCCC2)c1)c1ccc(F)cc1F` 3.06
